In this section, each of the molecules is paired with its reported EC50.
Tested on: JAK1-dependent STAT6 phosphorylation downstream of IL-13 stimulation in BEAS-2B human bronchial epithelial cells
Assay: JAK1 pathway assay in BEAS-2B cells (IL-13-pSTAT6, MSD)
Type: cell-based
Conditions: read-out: IL13-pSTAT6 EC50 (uM)_BEAS-2B
VALUE_KIND: EC50 (µM)

MOLECULE	UNITS_OF_MEASURE	TEST_RESULT
CN1CCC(n2cc(Cn3cc(NC(=O)c4cnn5cccnc45)c(-c4cc(Cl)ccc4OC(F)F)n3)nn2)CC1 [Example 454]	µM	0.0235
CNC(=O)CN1CCN(C(=O)Cn2cc(NC(=O)c3cnn4cccnc34)c(-c3cc(Cl)ccc3OC(F)F)n2)CC1 [Example 383]	µM	0.277
COC(=O)[C@@H](N)CCn1cc(NC(=O)c2cnn3cccnc23)c(-c2cc(Cl)ccc2OC(F)F)n1 [Example 387]	µM	0.0107
CC(C)CN1CCC2(CCN(C(=O)Cn3cc(NC(=O)c4cnn5cccnc45)c(-c4cc(Cl)ccc4OC(F)F)n3)CC2)C1 [Example 225]	µM	0.0423
O=C(Nc1cn(CC(=O)N2CCC(CO)CC2)nc1-c1cc(Cl)ccc1OC(F)F)c1cnn2cccnc12 [Example 274]	µM	0.0131
O=C(Nc1cn([C@H]2CCNC[C@@H]2O)nc1-c1cc(Cl)ccc1OC(F)F)c1cnn2cccnc12 [Example 359]	µM	0.0309
O=C(Nc1cn(Cc2cn(C3CCNCC3)nn2)nc1-c1cc(Cl)ccc1OC(F)F)c1cnn2cccnc12 [Example 452]	µM	0.0809
